test system: MILI (PIWIL2) piRISC loaded with piRNA #1 (26 nt); test: pre-steady-state target cleavage rate (min^-1); guide: piRNA #1 5'p-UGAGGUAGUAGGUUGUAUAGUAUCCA; higher = faster piRNA-guided slicing of the target; conditions: auxiliary factor: 500 nM mouse GTSF1;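 note: 1 nM active piRISC with 0.1 nM target library at 33 °C single turnover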
Decision: pre-steady-state target cleavage rate >= 0.009 yields label 1, all other cases yield label 0.

In [3]: df
Out[3]:
                          seq_text    class
 0  GGAGACCUAUGUAUACAACCUAGUUCCUCA  label 0
 1  GGAGACCUAUGAUAACAACCUACAACCUCA  label 0
 2  GGAGACCUAUCUAUACAACCUACUUCCUGA  label 1
 3  GGAGACGAUACUAUACUACCUACUUCCUCA  label 1
 4  GGAGAGGAUACUAUACAACCUACAUGCUCA  label 0
 5  GGAGACGAUACUAUACAACCUACAACCUGA  label 1
 6  GGAGUGCAUACUAUACAACCUUCUACCUCA  label 1
 7  GGAGACCUAACUAUAGAACCUACUAGCUCA  label 0
 8  GGAGACCUAACUAAACAACCUACUACCUCA  label 1
 9  GGAGACGAUACUAUACAACCUUCAACCUCA  label 0
10  GGAGAGGAUACUAAACAACCUACUACCACA  label 1

====

Listed below: pre-steady-state target cleavage rate values for each entry.
test system: MILI (PIWIL2) piRISC loaded with piRNA #1 (26 nt); test: pre-steady-state target cleavage rate (min^-1); guide: piRNA #1 5'p-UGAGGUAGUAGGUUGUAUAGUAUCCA; MIWI and MILI are mouse PIWI proteins and EfPiwi is from a freshwater sponge; tags in brackets are library labels; higher = faster piRNA-guided slicing of the target; details: auxiliary factor: 500 nM mouse GTSF1;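 note: 1 nM active piRISC with 0.1 nM target library at 33 °C single turnover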
Reported metric: pre-steady-state target cleavage rate

In [3]: df
Out[3]:
                                    seq_text                        reported_metric  op    value
 0            GGAGACCAUACUUUACAACCUACUACCUGA  pre-steady-state target cleavage rate   =   0.0887
 1             GGAGACGAUCUAUACAACCUACUACCUCA  pre-steady-state target cleavage rate   =    0.174
 2  GGAGACCUAACUAUACAACCUACUACCUCC [g2:g21:cont:t1C]  pre-steady-state target cleavage rate   =    0.175
 3             GGAGACCUAUGUAACAACCUACUACCUCA  pre-steady-state target cleavage rate   =   0.0402
 4            GGAGACCUAACAAUACAACCUACUACCUCA  pre-steady-state target cleavage rate   =   0.0822
 5            GGAGAGGAUACUAUACAAGCUUCUACCUCA  pre-steady-state target cleavage rate   =   0.0253
 6           GGAGAGUGAUACUAUACAACCUACUACCUCA  pre-steady-state target cleavage rate   =    0.227
 7            GGAGACCUAUCUAUAUAACCUACUACCUCA  pre-steady-state target cleavage rate   =   0.0723
 8            GGAGACCUAAGUAUAGAACCUACUACCUCA  pre-steady-state target cleavage rate   =   0.0747
 9           GGAGACCUUACUGAUACAACCUACUACCUCA  pre-steady-state target cleavage rate   =   0.0968
10            GGAGAGCAUACUAUACAACCUAGUACCUCA  pre-steady-state target cleavage rate   =   0.0618
11            GGAGUGGAUACUAUACAAGCUACUACCUCA  pre-steady-state target cleavage rate   =    0.233
12            GGAGUGGAUACUAUACAACGUACUAGCUCA  pre-steady-state target cleavage rate   =   0.0104
13             GGAGACCAUACUAUACAACCUACUACUCA  pre-steady-state target cleavage rate   =    0.204
14            GGAGACCAUACAAUUCAACCUACUACCUCA  pre-steady-state target cleavage rate   =     0.13
15            GGAGACCUAUCUUUACAACCUACUACCUCA  pre-steady-state target cleavage rate   =    0.063
16            GGAGACCUAUGUAUACAACCGACUACCUCA  pre-steady-state target cleavage rate   =  0.00448
17            GGAGACCAUAGUAUACAACCUACUACCACA  pre-steady-state target cleavage rate   =    0.133
18            GGAGACCUAUCUAUACAACCUACAUCCUCA  pre-steady-state target cleavage rate   =   0.0186
19            GGAGACCUUACGAUACAACCUACUACCUCA  pre-steady-state target cleavage rate   =    0.152
20            GGAGAGGAUACUAUUGUACCUACUACCUCA  pre-steady-state target cleavage rate   =    0.131
21            GGAGUGGAUACAAUACAACCUUCUACCUCA  pre-steady-state target cleavage rate   =   0.0111
22            GGAGACCUAUCUAUUCAACCUACUACCUCA  pre-steady-state target cleavage rate   =    0.108
23            GGAGUGGAUACUAUUCAACCUACUACCUCA  pre-steady-state target cleavage rate   =    0.179
24            GGAGACGAUACUAUUCAACCUACUAGCUCA  pre-steady-state target cleavage rate   =   0.0651
25            GGAGUGGAUACUAUACUACCUAGUACCUCA  pre-steady-state target cleavage rate   =   0.0719
26            GGAGACGAUAGAAUACAACCUACUACCUCA  pre-steady-state target cleavage rate   =    0.137
27            GGAGACCAUACUAUACAACCUAUUACCUCA  pre-steady-state target cleavage rate   =    0.234
28            GGAGACCAUACUAUACAACCUACUAGCUGA  pre-steady-state target cleavage rate   =   0.0115
29            GGAGACCAUACUAUAGUUCCUACUACCUCA  pre-steady-state target cleavage rate   =    0.156
30            GGAGACGUUACUAUUCAACCUACUACCUCA  pre-steady-state target cleavage rate   =    0.168
31            GGAGAGGAUACUAUACAACCUACUACCCCA  pre-steady-state target cleavage rate   =    0.119
32           GGAGUGGAGUACUAUACAACCUACUACCUCA  pre-steady-state target cleavage rate   =    0.153
33            GGAGACCUUACUAUACAAACUACUACCUCA  pre-steady-state target cleavage rate   =    0.204
34            GGAGACCUAUGUAUACUUGCUACUACCUCA  pre-steady-state target cleavage rate   =  0.00505
35            GGAGACCAUACUAUACAACCUAAUACCUCA  pre-steady-state target cleavage rate   =    0.117
36            GGAGACCUAUGAUAGCAACCUACUACCUCA  pre-steady-state target cleavage rate   =  0.00366
37            GGAGUGGAUACUUUACAACCUACUACGUCA  pre-steady-state target cleavage rate   =   0.0457
38            GGAGACGAUAGUUUACAACCUACUACCUCA  pre-steady-state target cleavage rate   =    0.129
39            GGAGACCUAUGAUAUGUACCUAGUACCUCA  pre-steady-state target cleavage rate   <   0.0001
40           GGAGACCUAUGAUAUCAACCUACCUACCUCA  pre-steady-state target cleavage rate   =  0.00604
41  GGAGUGGAUACUAUACAACCUACUACCUCU [g2:g26:cont:t1U]  pre-steady-state target cleavage rate   =    0.231
42            GGAGACCAUACUAUACAACCUACAUCCUCA  pre-steady-state target cleavage rate   =      0.1
43            GGAGACCUUACUAUACAACCUACAACCUCA  pre-steady-state target cleavage rate   =    0.126
44            GGAGUGGAUACUAUACAACUUACUACCUCA  pre-steady-state target cleavage rate   =   0.0246
45            GGAGACCUAACUAUACUACCUACUACGUCA  pre-steady-state target cleavage rate   =   0.0596
46           GGAGACCUAUGAUAACAACCUACUACCUCCA  pre-steady-state target cleavage rate   =  0.00565
47            GGAGACCAUACUAUAGAACCUACUACCACA  pre-steady-state target cleavage rate   =   0.0789
48             GGAGAGGAUACAUACAACCUACUACCUCA  pre-steady-state target cleavage rate   =    0.137
49            GGAGACCUAUGAUAUGUACCUACUACCCCA  pre-steady-state target cleavage rate   <   0.0001
50            GGAGACGAAACUAUACAACCUACUACCACA  pre-steady-state target cleavage rate   =    0.219
51            GGAGACCUAUGAUAACAUCCUACUAGCUCA  pre-steady-state target cleavage rate   =  0.00409
52           GGAGACCUAUGAUUACAACCUACUAUCCUCA  pre-steady-state target cleavage rate   =  0.00664
53  GGAGACCUAUGAUAUGUUCCUACUACCUCA [g2:g12:cont:t1A]  pre-steady-state target cleavage rate   <   0.0001
